test system: Mycobacterium tuberculosis; assay: Antimycobacterial activity against BTZ043-resistant Mycobacterium tuberculosis H37Rv harbouring DprE1 C387G mutant assessed as reduction in bacterial cell growth; assay type: functional
Task for the reader: assign each of the following molecules its reported MIC.
Value expressed in µM; do not type the unit.

**Q:** # input molecule: C[C@H]1COC2(CCN(c3nc(=O)c4cc(C(F)(F)F)cc([N+](=O)[O-])c4s3)CC2)O1 ; wanted: its MIC
**A:** 25

**Q:** State the recorded MIC for this entry: COc1ncnc(Cn2cnc3c(C(=O)NCCF)cccc32)c1C
**A:** 0.78

**Q:** Would you kindly share the measured MIC for NNC(=O)c1ccncc1 ?
**A:** 0.44

**Q:** Reported MIC for CO[C@H]1/C=C/O[C@@]2(C)Oc3c(C)c(O)c4c(O)c(c(/C=N/N5CCN(C)CC5)c(O)c4c3C2=O)NC(=O)/C(C)=C\C=C\[C@H](C)[C@H](O)[C@@H](C)[C@@H](O)[C@@H](C)[C@H](OC(C)=O)[C@@H]1C : what is it?
**A:** 0.005
